Where do the numbers come from? From patent EP0005541A2.

# Wirkung (in %) Puccinia coronata listing for each entry below
# Tested on: Puccinia coronata
# EXPERIMENTAL PROTOCOL: Puccinia coronata protective spray test on oat seedlings
# Assay type: in vivo
# CONDITION: 5 mg/l Spritzbrühe; oat seedlings FLAEMINGSKRONE, infected 2 days after spraying, read on day 9 after infection vs infected untreated control
METRIC NAME: Wirkung (in %) Puccinia coronata

{"columns": ["COMPOUND", "DISPLAY UNIT", "MEASURED"],
 "data": [
  ["CCC(C)(C)c1ccc(CC(C)CN2CCC3(CC2)OCCO3)cc1 (stereo not drawn)", "%", 10],
  ["CCC(C)(C)c1ccc(C(C)=C(C)CN2CCC(=O)CC2)cc1", "%", 90],
  ["CC(Cc1ccc(C(C)(C)C)cc1)CN1CCC2(CC1)OCCO2 (stereo not drawn)", "%", 90],
  ["CCC(C)(C)c1ccc(CC(C)CN2CCC(=O)CC2)cc1 (stereo not drawn)", "%", 0],
  ["CC(CN1CCC2(CC1)OCCO2)=C(C)c1ccc(C(C)(C)C)cc1", "%", 98],
  ["CCC(C)(C)c1ccc(C(C)=C(C)CN2CCC3(CC2)OCCO3)cc1", "%", 20],
  ["CC(CN1CCC(=O)CC1)=C(C)c1ccc(C(C)(C)C)cc1", "%", 0],
  ["CC(Cc1ccc(C(C)(C)CCl)cc1)CN1CC(C)CC(C)C1 (stereo not drawn)", "%", 40],
  ["CC(Cc1ccc(C(C)(C)CCl)cc1)CN1CC(C)OC(C)C1 (stereo not drawn)", "%", 0],
  ["CC(CN1CCCCC1)C(O)c1ccc(C(C)(C)C)cc1 (stereo not drawn)", "%", 10],
  ["CC(Cc1ccc(C(C)(C)C)cc1)CN1CCC(=O)CC1 (stereo not drawn)", "%", 0],
  ["CC(Cc1ccc(C(C)(C)CCl)cc1)CN1CCCCC1 (stereo not drawn)", "%", 30]
]}
